All values here come from PubChem BioAssay (EPA / NIEHS).

Target: Sodium channel protein type 1 subunit alpha (Rattus norvegicus) (UniProt P04774)
Assay: NVS_IC_rNaCh_site2: NovaScreen (NVS) Ion Channel Assay for rat Sodium Channel, Site 2 (NaCh) (AID 2283322);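 note: hit means loss of radioligand binding signal relative to DMSO so AC50 marks displacement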
Experimental: NVS_IC_rNaCh_site2 is a biochemical, single-readout assay that uses extracted gene-proteins from Rat forebrain membranes in a tissue-based cell-free assay. Measurements were taken 1 hour after chemical dosing in a 48-well plate.NVS_IC_rNaCh_site2 is one of one assay component(s) measured or calculated from the NVS_IC_rNaCh_site2 assay. […] This assay endpoint, NVS_IC_rNaCh_site2, was analyzed in the positive analysis fitting direction relative to DMSO as the negative control and baseline of activity. […]
Inconclusive results are not listed. Active and inactive are the calls of the source. Rule for the calls: active = hit-call score of the fitted dose curve at least 0.9, where 1 is the maximum; inconclusive = response in the unintended direction; inactive = score below 0.9.

Structure	outcome
CCc1cccc(CC)c1N(COC)C(=O)CS(=O)(=O)O	inactive
CN(Cc1cnc2nc(N)nc(N)c2n1)c1ccc(C(=O)N[C@@H](CCC(=O)O)C(=O)O)cc1	inactive
NC(=NCCCCCCN=C(N)/N=C(\N)Nc1ccc(Cl)cc1)/N=C(\N)Nc1ccc(Cl)cc1	inactive

* * *

read-out: Tissue plasminogen activator (tPA), PLAT (gene 5327); assay: BSK_BE3C_tPA: BioMAP Diversity Plus: BE3C Assay for Tissue plasminogen activator (tPA) Biomarker Activity (AID 2283041); details: primary human bronchial epithelial cells; actives raise or lower the signal
Calls of active or inactive are those of the source. Rule for the calls: active = hit-call score of the fitted dose curve at least 0.9, where 1 is the maximum; inactive = score below 0.9.
Please reply with one of these outcomes: active, inactive

# input Fill in: this test's call for `CCCCC=O` is ___
# output inactive

# input Fill in: this test's call for `CC[N+](CC)(CC)Cc1ccccc1` is ___
# output inactive

# input Fill in: this test's call for `CCCCc1oc2ccccc2c1C(=O)c1cc(I)c(OCCN(CC)CC)c(I)c1` is ___
# output active

# input Fill in: this test's call for `CS(=O)(=O)c1ccc([C@@H](CC2CCCC2)C(=O)Nc2cnccn2)cc1Cl` is ___
# output inactive

# input Fill in: this test's call for `C=CC(=O)OCCC(F)(F)C(F)(F)C(F)(F)C(F)(F)C(F)(F)C(F)(F)C(F)(F)C(F)(F)F` is ___
# output inactive

* * *

target: human Beta-secretase (BACE), BACE1 (gene 23621) (UniProt P56817); test: NVS_ENZ_hBACE: NovaScreen (NVS) Enzymatic Assay for human Beta-secretase (BACE) (AID 2283140);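 note: hits are inhibitors that reduce fluorescent substrate signal versus DMSO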
Sequence (P56817 whole entry, looked up): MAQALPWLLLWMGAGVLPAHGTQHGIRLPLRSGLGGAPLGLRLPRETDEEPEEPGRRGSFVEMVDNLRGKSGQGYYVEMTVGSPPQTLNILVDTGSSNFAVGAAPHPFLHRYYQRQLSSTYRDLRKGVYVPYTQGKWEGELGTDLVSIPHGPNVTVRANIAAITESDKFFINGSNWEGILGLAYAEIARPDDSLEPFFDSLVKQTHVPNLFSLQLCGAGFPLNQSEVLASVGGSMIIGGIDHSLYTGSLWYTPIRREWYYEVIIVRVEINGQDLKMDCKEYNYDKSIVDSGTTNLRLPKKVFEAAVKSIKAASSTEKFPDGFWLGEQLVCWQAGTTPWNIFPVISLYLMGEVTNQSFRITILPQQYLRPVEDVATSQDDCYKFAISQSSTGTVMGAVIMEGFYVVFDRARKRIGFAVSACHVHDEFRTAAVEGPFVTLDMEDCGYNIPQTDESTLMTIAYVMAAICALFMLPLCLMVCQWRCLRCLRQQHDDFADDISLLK
Records with an inconclusive call do not appear. Activity calls are given as the source filed them. The calls were made as follows: active = hit-call score of the fitted dose curve at least 0.9, where 1 is the maximum; inconclusive = response in the unintended direction; inactive = score below 0.9.
Quantity: AC50

Structure	Target Or System	Assay Value
CNNCc1ccc(C(=O)NC(C)C)cc1	human Beta-secretase (BACE), BACE1 (gene 23621) (UniProt P56817)	inactive
NS(=O)(=O)O	human Beta-secretase (BACE), BACE1 (gene 23621) (UniProt P56817)	inactive
CCCCc1oc2ccccc2c1C(=O)c1cc(I)c(OCCN(CC)CC)c(I)c1	human Beta-secretase (BACE), BACE1 (gene 23621) (UniProt P56817)	3.91 µM (active)

* * *

read-out: Interleukin 6 Receptor (IL6R), IL6R (gene 3570); assay: LTEA_HepaRG_IL6R: Life Technologies and Expression Analysis (LTEA) Assay for Interleukin 6 Receptor (IL6R) using HepaRG (AID 2283510); details: mRNA level, 48 h; actives raise or lower the signal
The source made the active and inactive calls. The calls were made as follows: active = hit-call score of the fitted dose curve at least 0.9, where 1 is the maximum; inactive = score below 0.9.
Please reply with one of these outcomes: Y for active, N for inactive

# input Fill in: this test's call for `CCCCc1oc2ccccc2c1C(=O)c1cc(I)c(OCCN(CC)CC)c(I)c1` is ___
# output N

# input Fill in: this test's call for `O=C1NS(=O)(=O)c2ccccc21` is ___
# output N

# input Fill in: this test's call for CCC(C)c1ccccc1O (centres undefined) is ___
# output N

# input Fill in: this test's call for `O=C(CCCN1CCC(O)(c2ccc(Cl)cc2)CC1)c1ccc(F)cc1` is ___
# output Y

* * *

test: BSK_hDFCGF_Proliferation: Cell Proliferation Assessment in the BioMAP Diversity Plus: hDFCGF Assay (AID 2283059); conditions: primary human foreskin fibroblasts;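 note: curves fitted for both rise and fall of signal versus DMSO baseline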
Activity calls are given as the source filed them. Rule for the calls: active = hit-call score of the fitted dose curve at least 0.9, where 1 is the maximum; inactive = score below 0.9.
Quantity: AC50

Compound	Assay Value
O=C(c1ccccc1)c1ccccc1	inactive
O=C1c2ccc(O)c(O)c2C(=O)c2c(O)ccc(O)c21	inactive
CC(=O)Nc1ccc(O)cc1	inactive
OCCN1CN(CCO)CN(CCO)C1	25.8 µM (active)
CCOC(=O)CN[C@@H](C(=O)N1CC[C@H]1C(=O)NCc1ccc(/C(N)=N/O)cc1)C1CCCCC1	inactive

AC50 reported for this compound `O=C(O)CCC(F)(F)C(F)(F)C(F)(F)C(F)(F)C(F)(F)F` : inactive

AC50 reported for this compound `N=C(N)c1ccc(OCCCCCOc2ccc(C(=N)N)cc2)cc1` : 12.1 µM (active)

AC50 reported for this compound `O=C(NCc1ncc(C(F)(F)F)cc1Cl)c1c(Cl)cccc1Cl` : inactive

AC50 reported for this compound CCCCC(CC)C(=O)O (stereo not given) : inactive

* * *

read-out: Vascular cell adhesion molecule 1 (VCAM1), VCAM1 (gene 7412); experiment: BSK_MyoF_VCAM1: BioMAP Diversity Plus: MyoF Assay for Vascular cell adhesion molecule 1 (VCAM1) Biomarker Activity (AID 2284231); conditions: primary human lung fibroblasts
The source made the active and inactive calls. Rule for the calls: active = hit-call score of the fitted dose curve at least 0.9, where 1 is the maximum; inactive = score below 0.9.
Please reply with one of these outcomes: TRUE = active, FALSE = inactive

# input Fill in: this test's call for `C=CC(=O)OCCC(F)(F)C(F)(F)C(F)(F)C(F)(F)C(F)(F)C(F)(F)C(F)(F)C(F)(F)F` is ___
# output FALSE

# input Fill in: this test's call for `CCCCCc1ccc(O)cc1` is ___
# output TRUE

# input Fill in: this test's call for `CCOC(=O)CN[C@@H](C(=O)N1CC[C@H]1C(=O)NCc1ccc(/C(N)=N/O)cc1)C1CCCCC1` is ___
# output FALSE

* * *

target: Heat shock factor protein 1 (Homo sapiens) (UniProt Q00613); experiment: ATG_HSE_CIS: Attagene CIS-FACTORIAL HepG2 Assay for human Heat Shock Transcription Factor 1 (HSE) (AID 2282953); conditions: HepG2 HSE cis-reporter, Attagene RNA transcription; actives raise or lower the signal
Sequence (Q00613 whole entry, looked up): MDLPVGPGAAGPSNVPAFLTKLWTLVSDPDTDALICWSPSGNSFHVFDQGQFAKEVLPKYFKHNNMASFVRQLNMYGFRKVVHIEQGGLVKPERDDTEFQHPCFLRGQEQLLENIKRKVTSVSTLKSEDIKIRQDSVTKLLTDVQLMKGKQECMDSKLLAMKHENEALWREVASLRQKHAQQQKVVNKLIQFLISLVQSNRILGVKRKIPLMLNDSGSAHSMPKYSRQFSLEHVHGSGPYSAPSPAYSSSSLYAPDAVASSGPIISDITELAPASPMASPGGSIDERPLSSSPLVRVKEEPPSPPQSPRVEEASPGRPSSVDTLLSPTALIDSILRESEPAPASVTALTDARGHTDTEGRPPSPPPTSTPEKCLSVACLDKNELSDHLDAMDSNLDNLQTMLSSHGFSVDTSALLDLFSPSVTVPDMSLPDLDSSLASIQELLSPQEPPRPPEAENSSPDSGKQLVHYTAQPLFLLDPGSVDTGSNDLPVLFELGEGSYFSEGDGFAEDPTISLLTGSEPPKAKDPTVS
Activity calls are given as the source filed them. Rule for the calls: active = hit-call score of the fitted dose curve at least 0.9, where 1 is the maximum; inactive = score below 0.9.
Please reply with one of these outcomes: active, inactive

# input Fill in: this test's call for `O=C(O)c1cccc(C(=O)O)n1` is ___
# output inactive

# input Fill in: this test's call for `CS(=O)(=O)c1ccc([C@@H](CC2CCCC2)C(=O)Nc2cnccn2)cc1Cl` is ___
# output active

# input Fill in: this test's call for c1ccc(CNc2ncnc3c2ncn3C2CCCCO2)cc1 (stereo unspecified) is ___
# output inactive

# input Fill in: this test's call for `CCC(=O)C=Cc1ccc(OC)cc1` is ___
# output active

# input Fill in: this test's call for `Clc1ccc(Nc2nnc(Cc3ccncc3)c3ccccc23)cc1` is ___
# output active

# input Fill in: this test's call for `CNNCc1ccc(C(=O)NC(C)C)cc1` is ___
# output inactive

# input Fill in: this test's call for `CCCCCCCCCCCCCCCCCC[N+](C)(C)Cc1ccccc1` is ___
# output inactive

# input Fill in: this test's call for `CC(=O)Nc1ccc(O)cc1` is ___
# output inactive

# input Fill in: this test's call for `CCCCCCC(C)(C)C(=O)O` is ___
# output active

# input Fill in: this test's call for `O=C(O)C(=O)O` is ___
# output inactive

# input Fill in: this test's call for `COc1ccc(C#N)cc1` is ___
# output inactive

# input Fill in: this test's call for `CCCCN(C)C` is ___
# output inactive

# input Fill in: this test's call for `O=S(=O)(c1ccc(OCc2ccccc2)cc1)c1ccccc1O` is ___
# output active

# input Fill in: this test's call for `Cc1ccccc1OCC(=O)O` is ___
# output inactive

# input Fill in: this test's call for `Cn1sccc1=O` is ___
# output active

# input Fill in: this test's call for Cc1ccccc1C(OCCN(C)C)c1ccccc1 (stereo unspecified) is ___
# output inactive

* * *

read-out: Matrix Metallopeptidase 1 (MMP1), MMP1 (gene 4312); assay: BSK_MyoF_MMP1: BioMAP Diversity Plus: MyoF Assay for Matrix Metallopeptidase 1 (MMP1) Biomarker Activity (AID 2284268); details: primary human lung fibroblasts
Activity calls are given as the source filed them. How the source made its calls: active means hit-call score of the fitted dose curve at least 0.9, where 1 is the maximum; inactive means score below 0.9.
Please reply with one of these outcomes: Yes (active), No (inactive)

# input Fill in: this test's call for `O=P(O)(O)CCC(F)(F)C(F)(F)C(F)(F)C(F)(F)C(F)(F)C(F)(F)C(F)(F)C(F)(F)F` is ___
# output No

# input Fill in: this test's call for `O=C(O)C(F)(F)OC(F)(F)C(F)(F)OC(F)(F)C(F)(F)OC(F)(F)C(F)(F)C(F)(F)C(F)(F)F` is ___
# output No

# input Fill in: this test's call for `OCC(F)(F)C(F)(F)C(F)(F)C(F)(F)C(F)(F)C(F)(F)C(F)(F)C(F)(F)C(F)(F)C(F)(F)C(F)(F)F` is ___
# output No

# input Fill in: this test's call for `CC[N+](CC)(CC)Cc1ccccc1` is ___
# output No

# input Fill in: this test's call for `O=C(NCc1ncc(C(F)(F)F)cc1Cl)c1c(Cl)cccc1Cl` is ___
# output No

# input Fill in: this test's call for `OCCN1CN(CCO)CN(CCO)C1` is ___
# output No

# input Fill in: this test's call for `O=P(O)(O)CCC(F)(F)C(F)(F)C(F)(F)C(F)(F)C(F)(F)C(F)(F)F` is ___
# output No

# input Fill in: this test's call for `Cc1ccc(C(=O)c2ccccc2)cc1` is ___
# output Yes

# input Fill in: this test's call for `COC1=CC(=O)C[C@@H](C)[C@]12Oc1c(Cl)c(OC)cc(OC)c1C2=O` is ___
# output Yes

# input Fill in: this test's call for `CC1=NN(c2ccccc2)C(=O)C1` is ___
# output No

# input Fill in: this test's call for `O=C(NO)c1ccccc1` is ___
# output No

# input Fill in: this test's call for `Cc1ccc(N=Nc2c(O)ccc3ccccc23)c(C)c1` is ___
# output No

# input Fill in: this test's call for `CCCCCc1ccc(O)cc1` is ___
# output Yes

# input Fill in: this test's call for `CC(C)(C)c1ccc(O)c(O)c1` is ___
# output No

# input Fill in: this test's call for `COc1cc(OC)nc(NC(=O)NS(=O)(=O)Nc2ccccc2C(=O)N(C)C)n1` is ___
# output No
